Test Name: AUC in CD-1 mouse at 100 mg/kg, po
Assay type: ADME, organism-based
Design: dose 100 mg/kg, route oral
Assay Conditions: plasma
Quantity: AUC

>>> observed_result("F[C@@H]1CNCC[C@H]1n1cc(-c2ccc3c(c2)Cc2c[nH]nc2-3)c(-c2ccncc2)n1 (stereo in doubt; 38)")
"38800 ng·h/mL"

----------
Test Name: AUC in CD-1 mouse at 2.5 mg/kg, iv
Type: ADME, organism-based
Parameters: dose 2.5 mg/kg, route intravenous
Assay Conditions: plasma
Quantity: AUC (ng·h/mL)

>>> observed_result("F[C@@H]1CNCC[C@H]1n1cc(-c2ccc3c(c2)Cc2c[nH]nc2-3)c(-c2ccncc2)n1 (stereo in doubt; 38)")
406
